From: ChEMBL document CHEMBL4706580

Assay: Inhibition of beta-lactamase CphA (unknown origin) expressed in Escherichia coli BL21(DE3) using imipenem as substrate by measuring substrate hydrolysis by spectrophotometric analysis
metric name: Ki (µM)
Numeric answer only, unit µM assumed.

Known Ki results, listed for orientation:
Oc1ccc(/C=N/n2c(-c3ccccc3O)n[nH]c2=S)c(O)c1    6
O=C(O)c1ccccc1/C=N/n1c(-c2cccc(-c3ccccc3)c2)n[nH]c1=S    4
O=C(O)c1ccccc1/C=N/n1c(C(c2ccccc2)c2ccccc2)n[nH]c1=S    13

Ask: Please supply the value of reported Ki for the item Cc1ccccc1-c1n[nH]c(=S)n1/N=C/c1cc([N+](=O)[O-])ccc1O
Result: 3

Ask: For the compound O=C(O)c1ccccc1/C=N/n1c(-c2cc(Cl)cc(Cl)c2)n[nH]c1=S , give its reported Ki.
Result: 4

Ask: In one line, give reported Ki of the entry Cc1ccccc1-c1n[nH]c(=S)n1/N=C/c1ccccc1C(=O)O .
Result: 120
